The reported numbers originate from PubChem BioAssay AID720706.

# Test Protocol: GFP drop in mixed WT/humanized-ribosome E. coli culture – GFP/RFP fluorescence, OD600, single point, bacterial rRNA inhibitor project, primary screen (AID 720706)
# Condition Description: E. coli WT GFP vs humanized-ribosome RFP mutants, 24 h; stronger effect = lower value, DMSO median 0, no signal -100
Screen size: about 350,000 compounds; about 5,500 (1.6%) were called active. The sample holds actives, similar compounds and a random draw of the others, so the mix is not that of the screen.
The following molecules are listed with their measured GFP signal change (wild-type ribosome) values.
Write the answer as a number in %, unit excluded.

Observe how each entry below is paired with its result.
| Molecule | GFP signal change (wild-type ribosome) (%) |
| --- | --- |
| COCC(=O)Nc1ccc2c(c1)C(=O)N(C)C[C@H](OC)[C@@H](C)CN(CCc1ccccc1)[C@@H](C)CO2 | -2.84 |
| COc1ccc(-c2nc(CCNC(=O)c3ccc(Br)o3)cs2)cc1 | -22.8 |
| COc1ccc(OC)c(-c2csc(NC(=O)COC(=O)C3CC3)n2)c1 | -18 |
| Cc1ccnc(NC(=O)CNC(=O)c2ccccc2)c1 | 0.565 |
| CCCNC(=O)N(C)C[C@H]1Oc2ncc(-c3cccc(C#N)c3)cc2C(=O)N([C@@H](C)CO)C[C@@H]1C | 6.13 |

Prompt line: Look up GFP signal change (wild-type ribosome) for this molecule: "COc1ccc(-n2cc(CN(C)Cc3n[nH]c(=O)[nH]3)c(-c3cccc(F)c3)n2)cc1"
Response line: -10.8

Prompt line: # iterate: COc1ccccc1C1/C(=C(/O)c2ccc(C)cc2)C(=O)C(=O)N1Cc1ccco1 (stereo not drawn)
Response line: 6.88

* * *

# Test Protocol: GFP drop in mixed WT/humanized-ribosome E. coli culture – GFP/RFP fluorescence, OD600, single point, bacterial rRNA inhibitor project, primary screen (AID 720706)
# Condition Description: E. coli WT GFP vs humanized-ribosome RFP mutants, 24 h; measured here: RFP humanized mutant strains, DMSO median 0, no signal -100, concentration not given here
The campaign covered roughly 350,000 compounds. About 5,500 (1.6%) were called active. This excerpt belongs to a sample that is enriched for actives.
Measurement Name: RFP signal change (%)
Write the answer as a number in %, unit excluded.

| Compound | Measurement Name | Observed Result |
| --- | --- | --- |
| Cc1ccccc1NC(=S)NC(=O)Cc1ccc(Cl)cc1 | RFP signal change | 1.01 |
| O=C(COC(=O)C1CCCO1)Nc1nc(-c2ccc(F)cc2)cs1 (stereo not given) | RFP signal change | -1.04 |
| COc1ccc(OC)c(-c2csc(NC(=O)C3=NNC(=O)CC3)n2)c1 | RFP signal change | -5.17 |
| COc1ccc(C(=O)C2CCCN(Cc3ccc4nonc4c3)C2)c(C)c1 (stereo not given) | RFP signal change | -4.26 |

Prompt line: Look up RFP signal change for this compound: "c1ccc(C(=NNc2nc3ccccc3s2)c2ccccn2)cc1"
Response line: 1.5

* * *

# Test Protocol: GFP drop in mixed WT/humanized-ribosome E. coli culture – GFP/RFP fluorescence, OD600, single point, bacterial rRNA inhibitor project, primary screen (AID 720706)
# Condition Description: E. coli WT GFP vs humanized-ribosome RFP mutants, 24 h; stronger effect = lower value, DMSO median 0, no signal -100
Hit rate of the full screen: of about 350,000 compounds, about 5,500 (1.6%) were called active. Many of the other results were omitted from the sample, so actives are more common in it than they were.
The following molecules are listed with their measured GFP signal change (wild-type ribosome) values.
Write the answer as a number in %, unit excluded.

| Chemical String | Unit Descriptor | Observed Result |
| --- | --- | --- |
| CS(=O)(=O)N(CC(=O)N/N=C/c1ccccn1)c1ccc(Oc2ccccc2)cc1 | % | -25.9 |

Prompt line: Look up GFP signal change (wild-type ribosome) for this molecule: "CCCN1C[C@H](C)[C@H](OC)CN(C)C(=O)c2cc(NC(=O)NC3CCCC3)ccc2OC[C@H]1C"
Response line: -0.637

Prompt line: # iterate: "COc1ccc(NC(=O)Nc2ccc3c(c2)CC(=O)N([C@H](C)CO)C[C@H](C)[C@H](CN(C)S(=O)(=O)c2ccccc2)O3)cc1"
Response line: 0.245
